Give GI50 for every item shown.
# Test system: BT-549
# run description: NCI tumour cell line growth inhibition, 48 h
Activity calls are given as the source filed them. No stated cut-off is given here; in the data, active = GI50 up to about 1.1 µM and inactive = higher.

// below: answered molecules
* O=C1C(NCCc2cc(Cl)c(O)c(Cl)c2)=CC(=O)c2[nH]cnc21 | 33.7 µM (inactive)
* CC1(C)S[C@H](CN)N[C@H]1C(=O)OC(c1ccccc1)c1ccccc1 | 24.8 µM (inactive)
* C1=CN2C[n+]3cccc(OCc4ccccc4)c3N=C2C(OCc2ccccc2)=C1 | 0.344 µM (active)
* CN(C)CCNC(=O)c1cccc(NC(=O)c2ccccc2)c1[N+](=O)[O-] | 53.8 µM (inactive)

Continue with the next molecule.
Looking up C/C(=N\NC(=S)NNC(=S)N(C)c1ccccc1)c1ccccn1 , I found its GI50 recorded as 3.14 µM (inactive)

----------
# Test system: A498
# run description: NCI tumour cell line growth inhibition, 48 h
The source made the active and inactive calls. Cut-off read from the data, not from the text of the source: active = GI50 up to about 1.1 µM and inactive = higher.
quantity measured: GI50

// below: answered compounds
- Cc1cn(C2OC(C)(CO)C(O)C2O)c(=O)[nH]c1=O (centres undefined): > 100 µM (inactive)
- CCC/C=C/C=C\C(=O)O[C@@H]1[C@@H](C)[C@]2(O)[C@@H]3C=C(C)C(=O)[C@H]3CC(COC(C)=O)=C[C@H]2[C@@H]2C(C)(C)[C@]12OC(C)=O: 1.99 µM (inactive)
- CC(C)C(N)(C(=O)O)c1ccccc1 (centres undefined): > 100 µM (inactive)

Continue with the next compound.
Looking up O=Cc1ccccc1COC(=O)c1cc(C(=O)OCc2ccccc2C=O)c(C(=O)OCc2ccccc2C=O)cc1C(=O)OCc1ccccc1C=O , I found its GI50 recorded as > 100 µM (inactive)

----------
# Tested on: NCI-H460
# run description: NCI tumour cell line growth inhibition, 48 h
The source made the active and inactive calls. No stated cut-off is given here; in the data, active = GI50 up to about 1.1 µM and inactive = higher.
The reply should be one of these categories: yes = active, no = inactive

• CC1OC(OC2C(OC(=O)[C@@H]3CC(C)(C)C[C@H]4C5=CC[C@@H]6[C@@]7(C)C[C@H](O)[C@H](OC8OC(CO)C(O)C(O)C8O)[C@@](C)(CO)[C@@H]7[C@H](O)C[C@@]6(C)[C@]5(C)CC[C@@]34C)OCC(O)C2O)C(O)C(O)C1O (stereo not given in full) = no
• CC(=O)N/C(=C\c1ccc(/C=C(\NC(C)=O)C2=NC3C(=O)c4ccccc4C(=O)C3N2)cc1)C1=NC2C(=O)c3ccccc3C(=O)C2N1 (stereo not given) = no
• COC(=O)CC(CNC(=O)OCc1ccccc1)OCc1ccc(OC)cc1 (stereo not given) = no
• CCC1(O)CC2CC(=O)OC2C1O (stereo not given) = no
• Cc1cc(N(CCC#N)CCC#N)ccc1/N=N/c1ccc(Br)cc1 = no
• O=C(/C=C/c1ccc(Cl)c(Cl)c1)C1CCC(Cl)CC1 (stereo not given) = no

query: Look up the recorded call for O=C1/C(=C/C=C/c2ccccc2)N=C(c2ccccc2)N1C1Nc2cc3c(cc2S1)NC(N1C(=O)/C(=C/C=C/c2ccccc2)N=C1c1ccccc1)S3 (stereo not given) in this test.
result: no

query: Look up the recorded call for COc1ccc2nc3cc(Cl)ccc3c(NCCCN(CCCl)CCCl)c2c1 in this test.
result: yes

query: Look up the recorded call for N#CCc1nc(-c2cc3ccc(O)cc3oc2=O)cs1 in this test.
result: no

query: Look up the recorded call for O=C(CCN1CCCCC1)N1CCc2c([nH]c3ccccc23)C1c1cccnc1 (stereo not given) in this test.
result: no

query: Look up the recorded call for COc1ccc(/C=C2\Oc3cc(OC(C)=O)ccc3C2=O)cc1 in this test.
result: no

query: Look up the recorded call for O=C1/C(=C/c2ccccc2)CN(C(=O)C(F)(F)F)C/C1=C\c1ccccc1 in this test.
result: no

query: Look up the recorded call for CCCCCCCCCCCCCC(=O)N(CCCCCCCCC)CC(O)C(O)C(OC1OC(CO)C(O)C(O)C1O)C(O)CO (stereo not given) in this test.
result: no

query: Look up the recorded call for COC(=O)[C@@H]1OC(C)(c2ccccc2)O[C@H]1C(=O)OC in this test.
result: no
